# Target Of Assay: Ba/F3-Flt3-transfected cells (Homo sapiens, UniProt P36888, cells depend on it, form not given)
# Run Description: Ba/F3-Flt3 (minus IL3) cellular proliferation assay, Alamar Blue
# Format: cell-based
# Experimental Context: minus IL3
Recorded Metric: BAF3-FLT3 (MIN IL3) 384 well pIC50

// batch mode: one BAF3-FLT3 (MIN IL3) 384 well pIC50 value per listed entry
1. COc1cc(OC)cc(N(CC2CC2)c2ccc3ncc(-n4cccn4)nc3c2)c1
2. COc1cc(OC)cc(N(CCO)c2ccc3ncc(C(=O)Nc4cnn(C)c4)nc3c2)c1
3. COc1cc(OC)cc(N(CCNC(C)C)c2ccc3ncc(-c4ccncc4)nc3c2)c1
4. COc1cc(OC)cc(N(CCO)c2ccc3ncc(-c4cccnc4)nc3c2)c1
5. COc1cc(OC)cc(N(CC2CC2)c2ccc3ncc(-c4cn(CCN5CCOCC5)nn4)nc3c2)c1

1: <5; 2: <5; 3: 5.14; 4: <5; 5: <5

// data source = patent US10052320B2
